System: K. pneumoniae 2689
Experiment: MIC against K. pneumoniae 2689
Format: cell-based
Conditions: Klebsiella pneumoniae, 2689, Table 2; K. pneumoniae 2689, KPC-2; alone; read-out: MIC
quantity-name: MIC (µg/mL)
# number only, unit µg/mL dropped from output

Solved entries:
- structure: "CC(C)(O/N=C(\\C(=O)N[C@@H]1C(=O)N2C(C(=O)[O-])=C(C[n+]3ccc4c(ccn4Cc4cc(C(=N)N)cs4)c3)CS[C@H]12)c1csc(N)n1)C(=O)O"
  quantity-name: "MIC"
  unit-tag: "µg/mL"
  measurement: 8
- structure: "CC(C)(O/N=C(\\C(=O)N[C@@H]1C(=O)N2C(C(=O)[O-])=C(C[n+]3ccc4c(ccn4Cc4ccc(C(=N)N)cc4)c3)CS[C@H]12)c1csc(N)n1)C(=O)O"
  quantity-name: "MIC"
  unit-tag: "µg/mL"
  measurement: 8
- structure: "CC(C)(O/N=C(\\C(=O)N[C@@H]1C(=O)N2C(C(=O)[O-])=C(C[n+]3ccc4c(ccn4Cc4cc(C(=N)N)co4)c3)CS[C@H]12)c1csc(N)n1)C(=O)O"
  quantity-name: "MIC"
  unit-tag: "µg/mL"
  measurement: 16

// moving on: another record for MIC
Req: Query for K. pneumoniae 2689: what MIC does the record show for `CC(C)(O/N=C(\C(=O)N[C@@H]1C(=O)N2C(C(=O)[O-])=C(C[n+]3ccc4n3CCN4Cc3ccc(C(=N)N)cc3)CS[C@H]12)c1csc(N)n1)C(=O)O` ?
Resp: 8
